Source of measurements: patent US9040547B2

So I've got a bunch of compounds here, and I need their pIC50 values.
Tested on: PC-9
Measurement description: Cell proliferation assay (CellTiter-Glo), PC-9
Assay type: cell-based
Measurement parameters: Homo sapiens, value marked (PC9), read-out: 3T3 del IC50, (PC9)
pIC50: −log10 of the molar value.

A selection of reference data follows.
[
  {
    "Compound": "C=CC(=O)N[C@H]1C[C@@H](Oc2nc(Nc3cnn(C)c3)nc3[nH]cc(-c4cccnc4)c23)C1 [Example 109]",
    "pIC50": "7.00 to 8.00"
  },
  {
    "Compound": "C=CC(=O)N1C[C@H](COc2nc(Nc3cnn([C@H]4CCOC4)c3)nc3[nH]cc(Cl)c23)[C@@H](OC)C1 [Example 102]",
    "pIC50": "6.00 to 7.00"
  },
  {
    "Compound": "C=CC(=O)N(C)[C@H]1C[C@H](Oc2nc(Nc3cnn(C)c3)nc3[nH]cc(-c4ccccn4)c23)C1 [Example 89]",
    "pIC50": "6.00 to 7.00"
  },
  {
    "Compound": "C=CC(=O)N1C[C@H](Nc2nc(Nc3cnn(C)c3)nc3[nH]cc(Cl)c23)[C@@H](C(F)F)C1 [Example 85]",
    "pIC50": "< 6.00"
  },
  {
    "Compound": "C=CC(=O)N1C[C@H](COc2nc(Nc3cnn(CCO)c3)nc3[nH]cc(Cl)c23)[C@@H](OC)C1 [Example 101]",
    "pIC50": "< 6.00"
  }
]

Each compound below has a recorded value; state its pIC50.
1. C=CC(=O)N1CC[C@@H](Nc2nc(Nc3cnn(C)c3)nc3[nH]cc(Cl)c23)C1 [Example 96]
2. C=CC(=O)N(C)[C@H]1C[C@H](Oc2nc(Nc3cnn(C)c3)nc3[nH]cc(-c4cccnc4)c23)C1 [Example 13]

Reply:
1. 6.00 to 7.00
2. 6.00 to 7.00
